- Protocol summary: gradient 5% acetonitrile 3 min, to 50% in 2 min, to 85% in 15 min, held 3 min, 100 µL/min
- Experimental conditions: column: Zorbax Extend-C18 2.1 x 50 mm; eluents: water / acetonitrile, 0.1% formic acid
Attribute measured: RP-LC retention time (s)

COc1ccc(OC)c(NC(=O)N2CCC(CN3CCC(C)CC3)CC2)c1	626
CC1CCN(CCCNC(=O)C2c3ccccc3C(=O)N(C)C2c2cccs2)CC1 (centres undefined)	624
O=C(CSc1nnc(NC(=O)C2CCCCC2)s1)Nc1ccc2c(c1)OCO2	802
COc1ccccc1Nc1c(-c2ccc3c(c2)OCO3)nc2cnccn12	859
CCCCn1cc(S(=O)(=O)Nc2ccc(C)cc2F)c2cccnc21	980

a = Cc1cc(-c2nnc(-c3ccc(F)cc3)o2)c(C)n1CC(=O)NC1CCCC1
b = CCN1CCCn2nc(C3CCN(C(=O)c4n[nH]c5ccccc45)CC3)cc2C1=O
Query: Compare a and b by numeric RP-LC retention time and name the larger one. Give the chosen item's label as your response.
Response: a

I = COC(=O)c1ccc(NC(=O)C2=Cc3cc(OC)ccc3OC=C2)cc1
II = Cn1ncc2c3ccccc3n(CCCC(=O)NCCCN3CCN(c4ccccc4)CC3)c2c1=O
Query: Compare I and II by numeric RP-LC retention time and name the larger one. Give the chosen item's label as your response.
Response: I
(I: 1040 s, II: 672 s)

* * *

- Protocol summary: gradient 5% acetonitrile 3 min, to 50% in 2 min, to 85% in 15 min, held 3 min, 100 µL/min
- Experimental conditions: column: Zorbax Extend-C18 2.1 x 50 mm; eluents: water / acetonitrile, 0.1% formic acid
Attribute measured: RP-LC retention time (s)

O=C(c1cccc(Br)c1)N1CCN(c2cc(-c3ccccc3)[nH]n2)CC1	852
Cc1nnc(-c2cc(NC(=O)c3ccc(F)cc3Cl)c(C)s2)o1	865
Cn1c(=O)c(N2CCC(NC(=O)Nc3ccccc3Cl)CC2)nc2cccnc21	904
COc1ccc(Cl)cc1S(=O)(=O)N1CCC(n2cnnc2-c2ccccc2)CC1	825
CC(C)NS(=O)(=O)c1ccc(Cl)c(-c2nnc(-c3ccccc3)o2)c1	977
O=C(NCC1CCN(S(=O)(=O)C2CC2)CC1)c1cc(=O)c2ccccc2o1	674
CCNC(=O)N1CC(n2cc(C(=O)NCCOC)nn2)C1	1260
CCn1c(=O)c2ccccc2n(Cc2nc(-c3ccc(C)cc3)no2)c1=O	1070
CN1C(=O)COc2ccc(-c3csc(NC(=O)c4ccccc4)n3)cc21	926
CCc1sc(NC(=O)CCS(=O)(=O)Cc2ccccc2)nc1-c1ccccc1	948

* * *

- Protocol summary: gradient 5% acetonitrile 3 min, to 50% in 2 min, to 85% in 15 min, held 3 min, 100 µL/min
- Experimental conditions: column: Zorbax Extend-C18 2.1 x 50 mm; eluents: water / acetonitrile, 0.1% formic acid
Attribute measured: RP-LC retention time (s)

For orientation, consider the following solved cases.
CNC(=O)c1ccsc1NC(=O)c1ccc(Cl)s1	882
O=C(Nc1cccc(F)c1)[C@@H]1OCC(=O)N(C2CC2)[C@H]1c1ccccc1	849
O=C(CN1C(=O)CCCc2ccccc21)N1CCN(C(=O)c2ccco2)CC1	678

A = Cc1cc2c(c(=O)n(-c3ccc(F)cc3)c(=O)n2CC(=O)Nc2cccc(C(C)C)c2)n1C
B = Cc1cc(C)n(CC(=O)NCCc2c[nH]c3ccccc23)c(=O)n1
Query: // compare measured RP-LC retention time between A and B ; output the lower one Give the chosen item's label as your response.
Response: B
(B: 570 s, A: 921 s)
